B1: MYBL2 (parent)
chain: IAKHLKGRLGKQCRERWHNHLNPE

- Variants of: B1
- PROTOCOL SUMMARY: protein stability index of a GFP-peptide fusion (GPS, HEK-293T) (PSI 1-6); higher = more stable;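 also: lentivirally expressed fusions sorted by FACS into six bins by GFP to DsRed ratio, PSI derived from sequencing read proportions per bin multiplied by bin number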
- CONDITION PARAMETERS: c terminus: a fixed tail appended
ENDPOINT: protein stability index
Lab note: record just the number, no unit beside it.

Req: Could you share which protein stability index value was measured for H20D ?
Resp: 1.96

Req: Could you share which protein stability index value was measured for R14A ?
Resp: 2

Req: Could you share which protein stability index value was measured for K3W ?
Resp: 1.95

Req: Could you share which protein stability index value was measured for P23W ?
Resp: 1.98

Req: Could you share which protein stability index value was measured for L5G ?
Resp: 2.04

Req: Could you share which protein stability index value was measured for E15R ?
Resp: 1.96

Req: Could you share which protein stability index value was measured for A2G ?
Resp: 1.95

Req: Could you share which protein stability index value was measured for L21G ?
Resp: 1.98

Req: Could you share which protein stability index value was measured for R16P ?
Resp: 1.96

Req: Could you share which protein stability index value was measured for A2H ?
Resp: 2.04

Req: Could you share which protein stability index value was measured for R16V ?
Resp: 2
